Data origin, for the record: BindingDB's records for patent US20240336642

# Tested target: Polyunsaturated fatty acid lipoxygenase ALOX12/ALOX15 (Homo sapiens, UniProt P16050+P18054)
# Sequence (P16050 whole entry): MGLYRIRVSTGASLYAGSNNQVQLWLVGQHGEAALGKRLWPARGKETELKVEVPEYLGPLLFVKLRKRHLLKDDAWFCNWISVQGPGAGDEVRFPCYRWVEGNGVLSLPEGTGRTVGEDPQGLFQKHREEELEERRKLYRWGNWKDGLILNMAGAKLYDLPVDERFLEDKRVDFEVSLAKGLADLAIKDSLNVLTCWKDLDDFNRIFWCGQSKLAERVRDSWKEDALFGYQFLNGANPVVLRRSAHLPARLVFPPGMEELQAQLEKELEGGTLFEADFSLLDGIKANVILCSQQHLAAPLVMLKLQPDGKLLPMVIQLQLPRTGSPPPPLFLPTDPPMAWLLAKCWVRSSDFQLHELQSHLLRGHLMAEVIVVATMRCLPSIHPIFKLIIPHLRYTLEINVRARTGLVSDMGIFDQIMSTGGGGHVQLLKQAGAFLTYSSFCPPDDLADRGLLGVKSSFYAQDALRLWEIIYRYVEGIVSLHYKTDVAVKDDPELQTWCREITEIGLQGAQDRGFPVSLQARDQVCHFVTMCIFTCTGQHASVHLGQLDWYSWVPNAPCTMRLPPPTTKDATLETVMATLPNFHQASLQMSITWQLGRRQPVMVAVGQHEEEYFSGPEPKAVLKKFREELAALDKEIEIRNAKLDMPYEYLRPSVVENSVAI
# Sequence (P18054 whole entry): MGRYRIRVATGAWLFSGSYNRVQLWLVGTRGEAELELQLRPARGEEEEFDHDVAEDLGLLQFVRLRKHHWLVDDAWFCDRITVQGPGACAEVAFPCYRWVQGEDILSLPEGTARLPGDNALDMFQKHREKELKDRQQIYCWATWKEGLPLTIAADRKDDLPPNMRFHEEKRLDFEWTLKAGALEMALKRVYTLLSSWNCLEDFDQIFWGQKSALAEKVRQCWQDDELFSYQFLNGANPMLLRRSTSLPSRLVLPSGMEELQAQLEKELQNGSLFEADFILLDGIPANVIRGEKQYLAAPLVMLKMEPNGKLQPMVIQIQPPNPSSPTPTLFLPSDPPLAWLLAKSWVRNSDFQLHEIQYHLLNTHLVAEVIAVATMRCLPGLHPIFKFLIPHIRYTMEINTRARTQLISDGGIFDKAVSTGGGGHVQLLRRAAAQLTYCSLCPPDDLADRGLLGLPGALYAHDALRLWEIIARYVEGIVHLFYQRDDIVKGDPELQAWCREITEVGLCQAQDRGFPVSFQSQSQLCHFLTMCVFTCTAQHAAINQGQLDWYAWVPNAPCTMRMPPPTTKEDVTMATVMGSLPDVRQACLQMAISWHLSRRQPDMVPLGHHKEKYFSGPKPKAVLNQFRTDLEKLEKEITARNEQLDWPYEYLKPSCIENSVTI
# Method notes: Biological Activity of Exemplified Compounds as Inhibitors of 12/15-LOX
Provide the reported IC50 of each item.
Write down the numeric answer in nM and omit the unit.

q: Can you look up the measured IC50 of CNc1oc(-c2cc(Cl)cc(OC)c2Cl)nc1C#N [US20240336642, Compound 9] for me?
a: 380

q: Can you look up the measured IC50 of CNc1oc(-c2cc(Cl)cc(Cl)c2OC(F)F)nc1C#N [US20240336642, Compound 4] for me?
a: 97
